B1: tRNA (parent)
chain: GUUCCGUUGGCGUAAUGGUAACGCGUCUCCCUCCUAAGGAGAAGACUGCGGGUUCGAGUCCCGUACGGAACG

variants of: B1; assay: yeast fitness relative to wild type (ratio to wild type); higher = fitter; tRNA-Arg(CCU), competitive growth, 37 C, YPD
This sample holds only a part of the variants without activity.
Hi, to clarify the labels: TRUE covers yeast fitness from 0.6 upward, FALSE covers anything below 0.6.

# record_sequence, assigned_label
data = [
    ("GUUCCGUUAGCGUAAUGGUAACGCGUCUCCGUCCUAAGGAGAAGACUGCGGGUUCGAGUCCCGUCCGGAACG", "FALSE"),
    ("GUUCCGUUGGCGUAAUGGUAAAGCGUCUACCUCCUAAGGAGAAGACUGCGGGUGCGAGUCCCGUACGGAACG", "FALSE"),
    ("GUUCCGUUGGCGUAAUGGUAACGCGUUUCCCUCCUAACGAGAAGACUGCGGGUUCGAGUCCCGUACGGUACG", "FALSE"),
    ("GUUCCGUUGGCCUAAUGGUAACGCGUCUCUCUCCUAAGGAGAGGACUGCGGGUUCGAGUCCCGUACGGAACG", "FALSE"),
    ("GUUCUGUUGGCGUAAUGGUAACGCGUCGCCCUCCUAAGGAGUAGACUGCGGGUUCGAGUCCCGUACGGAACG", "FALSE"),
]

Prompt: I'd appreciate it if you could say whether `GUUCCGUUGGCGUUAUGGUAACGCGUCUCCCUCCUAAGGAGCAGACUGCGGAUUCCAGUCCCGUACGGAACG` has yeast fitness at least equal to 0.6.
Response: FALSE

Prompt: Is reported yeast fitness greater than or equal to 0.6 here: `GUUCCGUUGGCGUAAUGGUAACGCGUCUCCCUCCUAAGGAGUAGGCUGCGGGUUCGAGUCCCGUACGGAACG`
Response: TRUE

Prompt: Is reported yeast fitness greater than or equal to 0.6 here: `GUUCCGUUGGCGUGAUGGUAACGCGUAUCCCUCCUAAGGAGAAGUCUGCGGGUUCGAGUCCCGUACCGAACG`
Response: FALSE

Prompt: Exam item: decide whether the reported yeast fitness for `GUUCCGUUGGCCUAAUGCUAACGCGUCUCCCUCCUAAGGAGAAGACUGCGGGUUCGAGUCCCGUACGGAACG` is at least 0.6.
Response: FALSE

Prompt: Quick check: does `GUUGGGUUGGCGUAAUGGUAACGCGUCUUCCUCCUAAGCAGAAGACUGCGGGUUCGAGUCCCGUACGGAACG` have yeast fitness greater than or equal to 0.6?
Response: FALSE

Prompt: Quick check, yeast fitness >= 0.6? `GAUCCGUUGGGGUAAUGGUAACGCGUCUCCCUCUUAAGGAGUAGACUGGGGGUUCGAGUCCCGUACGGAACG`
Response: TRUE

Prompt: Does the variant `GUUUCGUUGGCGUAAUGGUAACGCGUCUCCCUCCUAACGAGAAGACUGCGGGUUCGAGUCUCGUAUGGAACG` have recorded yeast fitness that is 0.6 or more?
Response: FALSE

Prompt: Can `GUUCCGUUGGCGUAAUGGUAACGCGUCUCCCUCCUAAGGAGAGGACUGUGGGUCCGAGUCCCGUACGGAACG` be said to have yeast fitness at or above 0.6?
Response: FALSE
